# Target or system: Pim-3 (Homo sapiens (Human))
Readout name: IC50

Give Pim-3 (Homo sapiens (Human)) IC50 for C[C@H]1CN(c2c(NC(=O)c3ccc(F)c(-c4c(F)cccc4F)n3)cnc3c2CCC3O)C[C@@H](N)[C@@H]1O (mixture of isomers) [Example 37 (mixture of diastereoisomers)]
≤ 0.1 µM

###

# Target or system: Pim-1 (Homo sapiens (Human))
# Sequence (P11309 whole entry): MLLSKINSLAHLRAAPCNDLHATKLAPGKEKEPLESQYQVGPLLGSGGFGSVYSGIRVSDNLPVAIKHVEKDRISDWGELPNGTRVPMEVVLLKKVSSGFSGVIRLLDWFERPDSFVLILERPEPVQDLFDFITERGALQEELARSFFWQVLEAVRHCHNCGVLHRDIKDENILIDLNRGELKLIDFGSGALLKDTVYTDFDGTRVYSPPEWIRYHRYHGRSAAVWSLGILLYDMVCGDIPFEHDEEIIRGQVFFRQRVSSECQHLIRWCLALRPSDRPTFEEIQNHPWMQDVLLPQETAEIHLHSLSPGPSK
Readout name: IC50

Give Pim-1 (Homo sapiens (Human)) IC50 for C[C@H]1CN(c2c(NC(=O)c3ccc(F)c(-c4c(F)cccc4F)n3)cnc3c2CCC3O)C[C@@H](N)[C@@H]1O (mixture of isomers) [Example 37 (mixture of diastereoisomers)]
≤ 100 nM
